Tested on: SK-MEL-28 melanoma
Assay: NCI-60 one-dose screen, 48 h
Conditions: 10 µM unless noted
The panel holds about 83,000 compounds, 20% with a hit somewhere; the sample as a whole holds those more often. Active and inactive are the calls of the source. Rule for the calls: active = growth percent below 10; inactive = the rest.
Classes used: active, inactive

| compound | assigned.class |
| --- | --- |
| O=C(NNc1ccccc1)c1ncc[nH]1 | inactive |
| Nc1ncnc2c1C(c1ccc([N+](=O)[O-])cc1)c1sc3c(F)cccc3c1O2 (centres undefined) | inactive |
| COc1ccc(Nc2ncnc3ccc(-c4cncc(NS(C)(=O)=O)c4)cc23)cc1Cl | inactive |
| O=C(c1cccc(Br)c1)N1CCN(c2ccnc3cc(Cl)ccc23)CC1 | inactive |
| COC(=O)[C@H]1Cc2c([nH]c3ccccc23)[C@@H](c2cccs2)N1 | inactive |
| Cc1nc2sc(C(=O)Nc3cccc(Cl)c3C)c(N)c2cc1C(O)c1ccccc1 (centres undefined) | inactive |
| CCOC(=O)CCCn1c(-c2ccccc2)cc(-c2ccccc2)c(C#N)c1=O | inactive |
| COc1cc(NS(=O)(=O)C(C)C)cc(-c2cc(-c3ccc(N4CCNCC4)cc3)cnc2N)c1 | inactive |
| C=C1C(=O)O[C@H]2[C@H]1CC/C(COC(=O)NCCCCNC(=O)OC/C1=C/CC[C@@]3(C)O[C@H]3[C@H]3OC(=O)C(=C)[C@@H]3CC1)=C\CC[C@@]1(C)O[C@@H]21 | active |

* * *

Tested on: HOP-62 NSCLC
Assay: NCI-60 one-dose screen, 48 h (100 = growth as untreated, 0 = no growth, -100 = all killed)
Details: 10 µM unless noted
This is part of a sample that, as a whole, favours compounds with a hit. Of some 83,000 tested, about 20% had one in any assay.
Threshold check on growth: strictly below 80% is 1 (yes); on or above 80% is 0 (no).

| molecule | experimental.system | assigned.class |
| --- | --- | --- |
| COc1cccc(C2C(C#N)=C(N)Oc3cc(OCCCCCC[P+](c4ccccc4)(c4ccccc4)c4ccccc4)ccc32)c1 (configuration not stated) | HOP-62 NSCLC | 1 (yes) |
| COc1cc(/C=C2/C=C(c3ccc(C(C)(C)C)cc3)N(CCc3ccc(S(N)(=O)=O)cc3)C2=O)cc(OC)c1OC | HOP-62 NSCLC | 1 (yes) |
| COc1ccc(/C=C2/C(=O)N=C3N2NC(c2ccccc2)=CN3c2ccccc2)cc1 | HOP-62 NSCLC | 0 (no) |
| COc1ccc(C(=O)N/N=C/c2ccc(O)cc2O)cc1Nc1ccnc(C(F)(F)F)c1 | HOP-62 NSCLC | 1 (yes) |
| O=C(CC1(O)C(=O)Nc2ccc(Br)cc21)c1ccc(Cl)cc1 (configuration not stated) | HOP-62 NSCLC | 0 (no) |
| CC[C@]1(O)CC2CN(CCc3c([nH]c4ccccc34)C(C(=O)OC)(c3cc4c(cc3OC)N(C=O)[C@H]3[C@@](O)(C(=O)OC)[C@H](OC(C)=O)[C@]5(CC)[C@@H]6C[C@@H]6CN6CC[C@]43[C@@H]65)C2)C1 (some centres not stated) | HOP-62 NSCLC | 1 (yes) |

* * *

Test system: BT-549 breast
Assay: NCI-60 one-dose screen, 48 h (100 = growth as untreated, 0 = no growth, -100 = all killed)
Settings: 10 µM unless noted
The panel holds about 83,000 compounds, 20% with a hit somewhere; the sample as a whole holds those more often.

| compound | growth / % |
| --- | --- |
| Cc1ccc(NC(=O)N/C(N)=N/c2nc(=O)c3ccccc3s2)cc1 | 86.4 |
| C=C1CC[C@@H]2[C@](C)(COC(C)=O)[C@H](OC(C)=O)CC[C@@]2(C)[C@@H]1CC(Nc1ccc(S(=O)(=O)Nc2nccs2)cc1)C1=CCOC1=O (stereo partly drawn) | -23.5 |
| Cn1cc(-c2csc(-c3c[nH]c4ccc(F)cc34)n2)c2cnccc21 | 76.6 |
| CCN(CC)CC#CCOC(=O)[C@]1(C)CCC[C@]2(C)c3ccc(C(C)C)cc3CC[C@@H]12 | 92.7 |
| NC1=CC(=O)c2cccnc2C1=O | 9.57 |
| O=C(Nc1ncc(Cc2cccc(C(F)(F)F)c2)s1)c1ccc(-n2cnnn2)cc1 | 67.6 |
| CC[C@]12CN3CCc4c([nH]c5ccccc45)[C@@](C(=O)OC)(c4cc5c(cc4OC)N(C)[C@H]4[C@@](O)(C(=O)OC)[C@H](OC(C)=O)[C@]6(CC)C=CCN7CC[C@]54[C@@H]76)CC(C3)[C@H]1O2 (stereo partly drawn) | -26 |
| COc1ccc(Nc2nn3c(SCC(=O)c4ccc(C)cc4)nnc3s2)cc1 | 92.2 |

* * *

Tested on: NCI-H226 lung
Assay: NCI-60 one-dose screen, 48 h (100 = growth as untreated, 0 = no growth, -100 = all killed)
Details: 10 µM unless noted
Compounds without any hit were thinned out: in the full panel of roughly 83,000, 20% have a hit.
endpoint.label: growth (%)

| compound | output.unit | measured.value |
| --- | --- | --- |
| CCCCCCCCCCCCCCCCCCn1cc(COc2ccc(C=O)cc2)nn1 | % | 102 |
| COc1cc(/C=C(/c2ccccc2)[N+](=O)[O-])c(OC)c2c1OCO2 | % | 24.8 |
| C=C(CN1CC=CCC1)[C@@H]1CC[C@]2(COC(C)=O)CC[C@]3(C)[C@H](CC[C@@H]4[C@@]5(C)CC[C@H](O)C(C)(C)[C@@H]5CC[C@]43C)[C@@H]12 | % | 92.5 |
| COC(=O)c1c2c(c(C)[n+]([O-])c1C)C(=O)C(NCCN1CCOCC1)=CC2=O | % | 103 |
| O=C(CCN1CCOCC1)Nc1cccc(-n2cc(-c3ccncc3)c(-c3ccc(Cl)c(O)c3)n2)c1 | % | 71 |
| Nc1ccc(-c2nc3ccc4[nH]ncc4c3c3c2CCCC3)cc1F | % | 42.2 |
| Cc1nc2sc(C(=O)Nc3cccc4ccccc34)c(N)c2cc1C(=O)/C=C/c1ccccc1 | % | -59.4 |
| CCN(CC)CCOc1ccccc1C | % | 116 |
| COc1ccc2c(c1)CC[C@@H]1[C@@H]2CC[C@]2(C)C3C(=CCC4C(=O)N(c5ccccc5)C(=O)C43)C[C@@H]12 (some centres undefined) | % | 90.8 |

* * *

System: HCC-2998 colon
Assay: NCI-60 one-dose screen, 48 h (100 = growth as untreated, 0 = no growth, -100 = all killed)
Conditions: 10 µM unless noted
The panel holds about 83,000 compounds, 20% with a hit somewhere; the sample as a whole holds those more often. Calls of active or inactive are those of the source. The calls were made as follows: active = growth percent below 10; inactive = the rest.
Here the recorded growth is given for each entry.

| molecule | growth |
| --- | --- |
| COc1ccc(/C(C)=C(\c2ccc(OCCN3CCOCC3)cc2)c2ccc(OC(=O)C3CCCCC3)cc2)cc1 | 107% (inactive) |
| Nc1n[nH]c2cccc(C#Cc3cccc(C(=O)Nc4ccc(CN5CCOCC5)c(C(F)(F)F)c4)c3)c12 | 26.9% (inactive) |
| CCNC(=O)Oc1ccc(/C(=C(/C)Cc2ccc(OC)cc2)c2ccc(OCCN(CC)CC)cc2)cc1 | 59.7% (inactive) |
| N=C(N)c1ccc(-c2ccc(-c3ccc(F)cc3)s2)nc1 | 16.2% (inactive) |
| CN1Cn2c(ccc2C(F)(F)F)C(=O)CS1(=O)=O | 104% (inactive) |
| CC1=C2[C@@H](CC1)[C@]1(C)O[C@@](C(C)C)(C[C@H]1OC(=O)CO)[C@H]2OC(=O)C1CC1c1ccccc1 (some centres undefined) | 82.9% (inactive) |
| Cc1[nH]c(C(=O)Nc2nc3ccc(NC(=O)CCN)cc3s2)c(Cl)c1Cl | 96.4% (inactive) |
| O=C(Nc1ncc(Cc2cccc(C(F)(F)F)c2)s1)c1ccc(-n2cnnn2)cc1 | 48.9% (inactive) |
| O=C(CCCOc1ccc(Br)cc1)Nc1ncc(Cc2ccc(F)cc2)s1 | 73.9% (inactive) |

* * *

Tested on: HS 578T breast
Test: NCI-60 one-dose screen, 48 h (100 = growth as untreated, 0 = no growth, -100 = all killed)
Settings: 10 µM unless noted
This is part of a sample that, as a whole, favours compounds with a hit. Of some 83,000 tested, about 20% had one in any assay.

| compound | experimental.system | output.unit | growth |
| --- | --- | --- | --- |
| COc1ccc(/C=C2\COc3ccc(O)c(O)c3C2=O)c(OC)c1OC | HS 578T breast | % | 27.9 |
| CC(C)(C)c1cc(C(C)(C)c2ccccc2)cc(Cc2cc(C(C)(C)c3ccccc3)cc(C(C)(C)C)c2O)c1O | HS 578T breast | % | 105 |
| Brc1ccc(/C=C(/C2=NCCN2)n2ccc3ccccc32)cc1 | HS 578T breast | % | 78.2 |
| COc1ccc(C(=O)N/N=C/c2ccc(O)cc2O)cc1Nc1ccnc(C(F)(F)F)c1 | HS 578T breast | % | 55.4 |
| Cc1cnc(C(=O)NNc2nc3sc4c(c3c(=O)[nH]2)C(C)CCC4)cn1 (centres undefined) | HS 578T breast | % | 46.8 |
| [2H]C([2H])([2H])Oc1cccc(/C=C/C(=O)/C=C(/C=C/c2cccc(OC([2H])([2H])[2H])c2OC([2H])([2H])[2H])OB(F)F)c1OC([2H])([2H])[2H] | HS 578T breast | % | 91.9 |
| COc1ccc(NC(=O)Nc2ccccc2CNc2nc(Nc3ccc(OCCN4CCCC4)cc3)ncc2Cl)cc1 | HS 578T breast | % | -67.7 |
| N#Cc1c(-c2cccc(F)c2)cc(-c2cccnc2)[nH]c1=O | HS 578T breast | % | 104 |
| Nc1n[nH]c2cccc(C#Cc3cccc(NC(=O)c4ccc(N5CCOCC5)c(C(F)(F)F)c4)c3)c12 | HS 578T breast | % | -11.4 |
| COc1cc(/C=C(/c2ccccc2)[N+](=O)[O-])c(OC)c2c1OCO2 | HS 578T breast | % | 31 |
| CCOC(=O)C1=C(C)NC(=O)NC1c1c(Cl)n(-c2ccccc2)c2ccccc12 (centres undefined) | HS 578T breast | % | 76.1 |
| CCOc1ccc(C(=O)Cc2ccccc2)cc1 | HS 578T breast | % | 107 |
| COc1ccc(/C=N/C2=C(C#N)C(c3ccccc3)c3c(ccc4ccccc34)O2)cc1 (centres undefined) | HS 578T breast | % | 17.5 |
| CCCCC1=C(Br)C(=O)c2nc(C)ccc2C1=O | HS 578T breast | % | 90.9 |
| COC1=CC(=O)C(OC)=C(O)C1=O | HS 578T breast | % | 113 |
| CCCCC#Cc1c(/C=C(\CCCC)SCC)n(C)c(=O)[nH]c1=O | HS 578T breast | % | 95.9 |
| CCOC(=O)CC1CSC(c2cccc(Cl)c2)=N1 (centres undefined) | HS 578T breast | % | 102 |
| CC(=O)OC[C@]12CCC(C)(C)C=C1[C@H]1CC[C@@H]3[C@@]4(C)CCCNC(C)(C)[C@@H]4CC[C@@]3(C)[C@]1(C)CC2 | HS 578T breast | % | 92.5 |
| O=C1OCC2=C1C(c1cccc(C(F)(F)F)c1)c1cc3c(cc1N2CCO)OCCO3 (centres undefined) | HS 578T breast | % | 27.8 |
| O=C(c1cccc(Br)c1)N1CCN(c2ccnc3cc(Cl)ccc23)CC1 | HS 578T breast | % | 112 |
| CCC(=O)Oc1cc(Cl)c(Cl)cc1Cl | HS 578T breast | % | 97.4 |
| CN1Cn2c(ccc2C(F)(F)F)C(=O)CS1(=O)=O | HS 578T breast | % | 106 |
| BrC1=C(Br)C(Br)(Br)C(Br)=C1Br | HS 578T breast | % | 118 |
| Clc1ccc2c(c1)N(c1ncnc3ccc(-c4cnc5[nH]ccc5c4)cc13)CC2 | HS 578T breast | % | 1.12 |
| O=C1CCCCN1CCCCC#Cc1cccc(C#Cc2cccnc2)c1 | HS 578T breast | % | 88 |
| CCN1CCN(C(=O)[C@]23CC[C@@H](C)[C@H](C)[C@@H]2C2=CC[C@@H]4[C@@]5(C)CCC(=O)C(C)(C)[C@@H]5CC[C@@]4(C)[C@]2(C)CC3)CC1 | HS 578T breast | % | -1.77 |
| N=C1/C(=C2\NC3C=CC=CC3S2)C(c2ccc(Cl)cc2)C2C(=O)N(c3ccccc3)C(=S)N12 (centres undefined) | HS 578T breast | % | 99.2 |
| CN1C(=O)/C(=C/c2ccc(C(=O)Nc3ncc(Cc4ccccc4Cl)s3)cc2)SC1=S | HS 578T breast | % | 65.8 |
| CCOC(=O)CCCn1c(-c2ccccc2)cc(-c2ccccc2)c(C#N)c1=O | HS 578T breast | % | 67.8 |
| [Cu+].[NH-][C@H]1C[N-]C(=O)[C@H]([C@H]2CCN=C(N)N2)[N-]C(=O)/C(=C\NC(N)=O)[N-]C(=O)[C@H](CNC(=O)C[C@@H](N)CCCN)[N-]C(=O)[C@H](CO)[N-]C1=O | HS 578T breast | % | 97 |
| Nc1nc(Nc2ccc(F)cc2)nn1C(=O)c1cc(Cl)ccc1Cl | HS 578T breast | % | 56.1 |
| Cc1ccc2[nH]c(=S)[nH]c(=O)c2c1 | HS 578T breast | % | 104 |
| Clc1ccc(CNc2ccc3nc(CCC4CCCCC4)[nH]c3c2)cc1 | HS 578T breast | % | 78.8 |
| Oc1ccccc1C=Nc1ccc(N2CCN(c3ccccc3)CC2)cc1 | HS 578T breast | % | 105 |
| Cn1cc(-c2nc3c(F)cc4[nH]ncc4c3c3c2CCCC3)c(C(F)F)n1 | HS 578T breast | % | 40.4 |
| CC(C)(C)c1cc(NC(=O)Nc2ccc(-c3cn4c(n3)sc3cc(OCCN5CCOCC5)ccc34)cc2)no1 | HS 578T breast | % | -2.54 |
| O=C1/C(=C/c2ccccc2)CN(C(=O)C(Cl)Cl)C/C1=C\c1ccccc1 | HS 578T breast | % | 4.17 |
| CCCc1cc(C(N)=S)ccn1 | HS 578T breast | % | 125 |
| COc1ccc2c(c1)c(-c1nc(-c3c[nH]c4c(Cl)nccc34)cs1)cn2C | HS 578T breast | % | 87.6 |

Data origin, for the record: PubChem BioAssay (NCI)
